In this section, each of the compounds is paired with its reported cytotoxicity at 70.5 h.
- method-summary: Human HepG2 cell viability assay in 384 well format
- Format: toxicity, cell-based
- Set-up: dose 125 nL, time 70.5 hour; concentration not given beside the values
- recorded-conditions: HepG2 cells, read-out: Inhibition
Respond numerically; units are % and should not be typed.

The examples below pair each entry with its known result.
• O=C1CCCN1c1cccc(N2CCC(NCCc3cscn3)CC2)c1 = -4.03
• CCn1cc(CN2CCCN(C(=O)CCc3ccccc3)CC2)cn1 = -12.3
• c1ccc(-c2noc(CNC3CCCN(c4cccnn4)C3)n2)nc1 (stereo not drawn) = 0.881
• COc1cccc(C(=O)NC(c2ccccn2)[C@H]2CC[C@H](CN)CC2)c1 (stereo partly drawn) = -8.19
• Cc1cccc(CN2C[C@@H]3CN(C(=O)c4cnoc4C)C[C@@H]3C2=O)n1 = -5.42

INPUT: What value of cytotoxicity at 70.5 h has been reported for the following compound? Cc1cc(CNCC2CCCN(C(=O)OC(C)(C)C)C2)no1 (stereo not drawn)
OUTPUT: -6.15

* * *

- method-summary: Human HepG2 cell viability assay in 384 well format
- Format: toxicity, cell-based
- Set-up: dose 125 nL, time 70.5 hour; concentration not given beside the values
- recorded-conditions: HepG2 cells, read-out: Inhibition
In this section, each of the compounds is paired with its reported cytotoxicity at 70.5 h.
Respond numerically; units are % and should not be typed.

• COc1ccc(-c2c(C(C)C)nn3c(=N)c(C#N)n[nH]c23)cc1 = -20.1

INPUT: What value of cytotoxicity at 70.5 h has been reported for the following compound? Cc1cccc(CN(Cc2ccccc2)Cc2nccs2)n1
OUTPUT: -11.1

INPUT: Param item: COc1ccccc1OCCCc1cc(C#N)ccn1
OUTPUT: 6.71

INPUT: Param item: COc1cc(OC)cc(C2(O)CCN(Cc3ncc(C)o3)CC2)c1
OUTPUT: 18.5

INPUT: Param item: Fc1cccc(CNCC2Cn3nncc3CO2)c1 (configuration not stated)
OUTPUT: -7.02

INPUT: Param item: CN1CCCn2c(nc(CNC(=O)c3nccn3C)cc2=O)C1
OUTPUT: -1.89

INPUT: Param item: CCCc1n[nH]c(C2CN(C(=O)CCn3nc(C)cc3C)CCO2)n1 (configuration not stated)
OUTPUT: 0.729

INPUT: Param item: CC(CO)(NCc1noc(Cc2ccccc2)n1)C1CCCCC1 (configuration not stated)
OUTPUT: -0.885

* * *

- method-summary: Human HepG2 cell viability assay in 384 well format
- Type: toxicity, cell-based
- Parameters: dose 125 nL, time 70.5 hour; concentration not given beside the values
- recorded-conditions: HepG2 cells, read-out: Inhibition
measurement-name: cytotoxicity at 70.5 h (%)
Respond numerically; units are % and should not be typed.

- Cc1ccc(-c2nn3c(nc2=O)-c2ccccc2NC3C(=O)O)cc1C (stereo not drawn): 3.4
- CN(C(=O)c1ccccc1Cl)C1CCN(c2ccccn2)CC1: -3.26
- O=C(c1cnco1)N1C[C@@H]2CC[C@H](Oc3ccccc3F)[C@@H]2C1: 40.3
- CC(N)Cc1ccccc1Sc1ccc(O)cc1 (stereo not drawn): -7.28
- C/N=C1/c2cc3cc(OC)ccc3n2CCN1Cc1ccccc1.Cl: 61.3

INPUT: What value of cytotoxicity at 70.5 h has been reported for the following compound? Cn1c(Cn2cccn2)nnc1C1CCN(Cc2ccccc2Cl)CC1
OUTPUT: -4.12

INPUT: Param item: CCS(=O)(=O)c1ncc(CN(C)Cc2ccccc2Cl)n1CCOC
OUTPUT: -2.37

INPUT: Param item: COCC[C@]1(O)CCN(C(=O)C2CCN(C3CCCC3)CC2)C[C@H]1C
OUTPUT: -5.71

INPUT: Param item: O=C(COCc1ccccc1)N1CCCn2cncc2C1
OUTPUT: -4.83

INPUT: Param item: CCc1n[nH]c(SCC(=O)N2CCc3[nH]nc(C4CCC4)c3C2)n1
OUTPUT: -0.161

INPUT: Param item: Cc1cnn(CC2CCCN2Cc2ncc(-c3ccc(F)cc3)o2)c1 (stereo not drawn)
OUTPUT: 24

INPUT: Param item: O=C(NC1CC1)c1cc(C2CC2)nc2onc(C3CCNCC3)c12
OUTPUT: -4.47
